# Target Or Test System: GLP-1 receptor (human (printed as hGLP1R), UniProt P43220 24-463)
# Method Notes: cell-based or functional assay
Non-standard residues stand in square brackets, D forms with d. No end group written: not given here. Aib = CC(C)(N)C(=O)O

{"Binder": "Y[Aib]EGTFTSDYSI[Aib]LEKQAQ[Aib]EFVEWLIKGGPSSGASLRHYYNWLTRQRY-NH2 (not fully specified (residue 28); also: TFA salt) [Compound 198]", "EC50 hGLP1R 0.5% hP (CreLuc) (pM)": 470}
{"Binder": "Y[Aib]EGTFTSDYSI[Aib]LEKQAQ[Aib]AFVQWLIKGGPSEGASLRHYYNWLTRQRY-NH2 (not fully specified (residue 28); also: TFA salt) [Compound 245]", "EC50 hGLP1R 0.5% hP (CreLuc) (pM)": 90}

# credit: patent US20240247080A1
